# Test system: SF-295 CNS
# assay method text: NCI tumour cell line growth inhibition, 48 h
measured parameter: TGI

Below are worked cases with known answers.
COC(=O)C(Cc1c[nH]c2ccccc12)N=C1Nc2ccncc2S(=O)(=O)N1c1ccccc1 (stereo unspecified)	> 100 µM
C[C@]12C[C@H](c3ccccc3)Nc3ccccc3N1C(c1ccccc1)=NO2	> 100 µM
COc1c2nc(CCl)[nH]c(=O)c2c(OC)c2nc(CCl)[nH]c(=O)c12	> 100 µM

The reported TGI of the compound CC(=O)O[C@H]1CC[C@H]2[C@@H]3CCC4C(C)=NNC(=O)C4[C@H]3CC[C@]12C (stereo partly specified) was > 100 µM

The reported TGI of the compound Cc1c(C)c2c(c(N)c1C#N)C(=O)N(CCc1ccccc1)C2=O was > 100 µM

The reported TGI of the compound CCN(CC)c1cc2c3c(c1)CCCN3CCC2 was > 10 µM

The reported TGI of the compound COc1ccc([N+](=O)[O-])c2c(NCCCN(C)C)c3ccccc3nc12 was 0.693 µM

The reported TGI of the compound CCOC(=O)C(Cc1c[nH]c2ccc(N)cc12)(NC(C)=O)C(=O)OCC was > 1000 µM

The reported TGI of the compound CN1CCN(CCCN)CC1 was > 100 µM

The reported TGI of the compound C=CC1(C(=O)O)CCC(C(C)(C)C)CC1 (stereo unspecified) was > 100 µM

The reported TGI of the compound COc1ccc(/C=C2\CCC(CNc3cc(C)on3)C2=O)cc1 (stereo unspecified) was > 100 µM

The reported TGI of the compound O=c1c2c(nc3n1CCS3)[nH]c1ccccc12 was > 100 µM

The reported TGI of the compound Cc1cc(C)nc(NS(=O)(=O)c2ccc(Nc3c4ccccc4nc4c(C(=O)NNCCO)cccc34)cc2)n1 was > 100 µM

The reported TGI of the compound O=S(=O)(N/N=C/c1ccc(/C=N/NS(=O)(=O)c2ccccc2)cc1)c1ccccc1 was 45.6 µM

The reported TGI of the compound CC(C)(C#N)c1cc(Cn2cncn2)cc(C(C)(C)C#N)c1 was > 10000 µM

The reported TGI of the compound COC(=O)C1=C(O)C(C(=O)OC)[C@]2(O)[C@H](C(=O)OC)[C@H]1C[C@@H](c1ccc(F)cc1)[C@H]2C(=O)OC (stereo partly specified) was 43.9 µM

The reported TGI of the compound COc1ccc(OC)c2sc(N3C(=O)/C(=C/c4ccc(Cl)cc4)N=C3c3ccccc3)nc12 was > 100 µM

The reported TGI of the compound C/C1=C/C(C)CC(C)OC(=O)C(C)NC(=O)C(Cc2ccc(O)c(I)c2)N(C)C(=O)CNC(=O)C(C)C1 (stereo unspecified) was 1.73 µM

The reported TGI of the compound COc1ccc2cc(CNCCCCCCCCCCCCNCc3ccc4cc(OC)ccc4c3)ccc2c1 was 42.2 µM

The reported TGI of the compound Cn1ccnc1CC(C)(O)c1ccccc1 (stereo unspecified) was > 100 µM

The reported TGI of the compound O=C1CC(CC(O)[C@@H]2CCCC[C@@H]2O)CC(=O)N1c1ccccc1 (stereo partly specified) was > 100 µM
